Recorded values, source patent US20050271739A1.

system: alcohol dehydrogenase; experiment: Effect of thyroxine analogues on alcohol dehydrogenase activity; type: biochemical; conditions: Dosage 17 μM; None = 100
Below, each of the molecules is paired with its reported Relative Increase (%) value.
State just the number; it will be interpreted in %.

Guide cases for Relative Increase (%), answers given:
N[C@@H](Cc1cc(Br)c(Oc2ccc(O)c(I)c2)c(Br)c1)C(=O)O: 480
NC(Cc1ccc(Oc2ccc(O)cc2)cc1)C(=O)O (racemic): 535
N[C@@H](Cc1cc(I)c(Oc2cc(I)c(O)c(I)c2)c(I)c1)C(=O)O: 300

Query (molecule): O=C(O)Cc1cc(I)c(Oc2ccc(O)c(I)c2)c(I)c1 ; field requested: Relative Increase (%)
715

Tell me the measured Relative Increase (%) of O=C(O)CCc1ccc(Oc2cc(I)c(O)c(I)c2)c(I)c1 , please.
865

Quick check: Relative Increase (%) of O=C(O)CCc1cc(I)c(Oc2ccc(O)c(I)c2)c(I)c1 ?
676

// Relative Increase (%) lookup, key: O=C(O)CCc1cc(I)c(Oc2cc(I)c(O)c(I)c2)c(I)c1
750
